For each of the compounds below, state its EC50.
Tested On: Human coagulation factor (F)XI (Homo sapiens, UniProt P03951)
Construct: Enzyme Research Laboratories (FXIIa) HCXI-150 (FXI); HFXIIa (FXIIa)
Sequence (P03951 19-625): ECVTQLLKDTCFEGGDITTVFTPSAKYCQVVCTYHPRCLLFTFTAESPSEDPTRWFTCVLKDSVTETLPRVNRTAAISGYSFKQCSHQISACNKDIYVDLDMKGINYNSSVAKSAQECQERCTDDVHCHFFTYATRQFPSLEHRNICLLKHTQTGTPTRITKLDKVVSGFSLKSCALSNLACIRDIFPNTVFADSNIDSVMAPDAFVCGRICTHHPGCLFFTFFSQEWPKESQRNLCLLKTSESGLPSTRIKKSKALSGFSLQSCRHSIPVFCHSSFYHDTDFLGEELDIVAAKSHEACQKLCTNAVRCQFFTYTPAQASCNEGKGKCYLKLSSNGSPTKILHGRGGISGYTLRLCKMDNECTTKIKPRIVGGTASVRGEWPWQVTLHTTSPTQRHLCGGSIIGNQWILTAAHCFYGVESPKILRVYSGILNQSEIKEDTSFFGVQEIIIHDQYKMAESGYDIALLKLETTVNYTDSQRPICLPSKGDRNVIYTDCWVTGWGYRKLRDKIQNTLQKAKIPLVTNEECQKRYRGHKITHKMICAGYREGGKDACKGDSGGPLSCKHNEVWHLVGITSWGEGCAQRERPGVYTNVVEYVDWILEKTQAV
Protocol: Inhibition of FXIIa mediated activation of FXI (activation of human Factor XI to XIa by human Factor α-XIIa)
Recorded Conditions: human FXI pre-incubated with compound 30 min at 22° C., activation by human FXIIa 60 min, z-GPR-AFC substrate fluorescence read-out, 4 parameter logistic fit; read-out: Inhibition of FXIIa meditated activation of FXI
Protocol: Inhibition of FXIIa Mediated Activation of FXI Activation of Human Factor XI to XIa by Human Factor α-XIIa The assay was performed in 50 mM HEPES, 150 mM NaCl, 5 mM CaCl2, 0.1% PEG-8000, pH 7.4 buffer in black, flat-bottom, polystyrene microplates (Corning, Cat #3573). […] Fluorescence at 405/510 nm was measured in end-point mode using an Envision plate-reader (Perkin Elmer). […]
Please respond with the number in nM and leave the unit unwritten.

Request: Notebook entry, Human coagulation factor (F)XI (Homo sapiens, UniProt P03951) assay: EC50 of N#CC1(c2ccccn2)CCN(C(=O)c2cc(C(=O)N3CCCCC3)c3cc(OCc4ncc(C(F)(F)F)cc4Cl)ncc3c2)CC1 = ?
Response: 24.3

Request: Return EC50 measured with Human coagulation factor (F)XI (Homo sapiens, UniProt P03951) given this compound: O=C(c1cc(C(=O)N2CCCCC2)c2cc(OCc3ccc(C(F)(F)F)nc3)ncc2c1)N1CCC(n2cccn2)CC1
Response: 33.2

Request: // lookup EC50 | system=Human coagulation factor (F)XI (Homo sapiens, UniProt P03951) | key= O=C(c1cc(C(=O)N2CCCCC2)c2cc(OCc3ncc(C(F)(F)F)cc3Cl)ncc2c1)N1CCC(n2ccnn2)CC1
Response: 32.7

Request: Short answer please: EC50, Human coagulation factor (F)XI (Homo sapiens, UniProt P03951), entry O=C(c1cc(C(=O)N2CCCCC2)c2cc(OCc3nc4ccccc4s3)ncc2c1)N1CCC(n2cccn2)CC1
Response: 19.9

====

Tested On: Human coagulation factor (F)XI (Homo sapiens)
Construct: Enzyme Research Laboratories (FXIIa) HCXI-150 (FXI); HFXIIa (FXIIa)
Protocol: Inhibition of FXIIa mediated activation of FXI (activation of human Factor XI to XIa by human Factor α-XIIa)
Recorded Conditions: human FXI pre-incubated with compound 30 min at 22° C., activation by human FXIIa 60 min, z-GPR-AFC substrate fluorescence read-out, 4 parameter logistic fit; read-out: Inhibition of FXIIa meditated activation of FXI
Task for the reader: assign each of the following compounds its reported pEC50.
# pEC50: negative log10 of molar concentration; output just the value

Request: Recorded pEC50 for N#Cc1cccc(COc2cc3c(C(=O)N4CCCCC4)cc(C(=O)N4CCC(C#N)(c5ccccc5)CC4)cc3cn2)c1 , please?
Response: 7.63

Request: Need pEC50 of O=C(c1cc(C(=O)N2CCCCC2)c2cc(OCc3ccc(Cl)cc3Cl)ncc2c1)N1CCC(n2cccn2)CC1 , thanks.
Response: 7.31

Request: Tell me the measured pEC50 of N#CC1(c2ccccn2)CCN(C(=O)c2cc(C(=O)N3CCCCC3)c3cc(OCc4ncc(Cl)cc4Cl)ncc3c2)CC1 , please.
Response: 8.37

Request: Dear colleague, I am looking for the recorded pEC50 of the following compound: N#CC1(c2ccccc2)CCN(C(=O)c2cc(C(=O)N3CCCCC3)c3cc(OCc4nc5ccccc5s4)ncc3c2)CC1
Response: 7.42

====

Tested On: Human coagulation factor (F)XI (Homo sapiens, UniProt P03951)
Construct: Enzyme Research Laboratories (FXIIa) HCXI-150 (FXI); HFXIIa (FXIIa)
Protocol: Inhibition of FXIIa mediated activation of FXI (activation of human Factor XI to XIa by human Factor α-XIIa)
Recorded Conditions: human FXI pre-incubated with compound 30 min at 22° C., activation by human FXIIa 60 min, z-GPR-AFC substrate fluorescence read-out, 4 parameter logistic fit; read-out: Inhibition of FXIIa meditated activation of FXI
The label is label 1 for EC50 below 10 nM and label 0 for EC50 equal to or exceeding 10 nM.

Request: I wonder whether N#CC1(c2ccccc2)CCN(C(=O)c2cc(C(=O)N3CCCCC3)c3cc(OCCCc4cccnc4)ncc3c2)CC1 [Example 4] has EC50 below 10 nM. Can you tell?
Response: label 1

Request: Hello, is EC50 of the following compound strictly smaller than 10 nM? O=C(c1cc(C(=O)N2CCCCC2)c2cc(OCc3ncc(Cl)cc3Cl)ncc2c1)N1CCC(n2cccn2)CC1 [Example 14]
Response: label 1

Request: Please check: EC50 for N#Cc1ccc(COc2cc3c(C(=O)N4CCCCC4)cc(C(=O)N4CCC(n5cccn5)CC4)cc3cn2)cn1 [Example 9] , strictly under 10 nM or not?
Response: label 0

Request: Please let me know if N#CC1(c2ccccc2)CCN(C(=O)c2cc(C(=O)N3CCCCC3)c3cc(OCc4ncc(C(F)(F)F)cc4Cl)ncc3c2)CC1 [Example 2] shows EC50 below 10 nM.
Response: label 0

Request: Is it true that EC50 reported for O=C(c1cc(C(=O)N2CCCCC2)c2cc(OCc3ncc(C(F)(F)F)cc3Cl)ncc2c1)N1CCC(n2cccn2)CC1 [Example 8] is less than 10 nM?
Response: label 0

Request: Is 10 nM strictly greater than the compound's reported EC50? compound: N#CC1(c2ccccc2)CCN(C(=O)c2cc(C(=O)N3CCCCC3)c3cc(OCc4ncc(Cl)cc4Cl)ncc3c2)CC1 [Example 6]
Response: label 0

Request: Check if EC50 falls below 10 nM for O=C(c1cc(C(=O)N2CCCCC2)c2cc(OCc3ncc(Cl)cc3Cl)ncc2c1)N1CCC(n2ccnn2)CC1 [Example 5] .
Response: label 0

Origin of values: patent US12428397B2
